target: the molecule itself; assay: SEC; Superose 6 Increase 10/300 GL; 50 mM Tris-HCl (pH 8.0), 300 mM NaCl, 10 mM MgCl2; oligomeric state calculated from elution volumes of proteins of known size
observedProperty: stoichiometry N
Respond with the number and no other words.

Prompt: Please give measured stoichiometry N of the following entry: KpUGP E238A (enzyme, UDP-glucose pyrophosphorylase (galU gene product) of K. pneumoniae DSM 30104; mutant of Strep-KpUGP; tag as in m1; no cleavage described) MAALNSKVRKAVIPVAGLGTRMLPATKAIPKEMLPLVDKPLIQYVVNECIAAGITEIVLVTHSSKNSIENHFDTSFELEAMLEKRVKRQLLEEVQSICPPHVTIMQVRQGLAKGLGHAVLCAHPVVGDEPVAVILPDVILDEYESDLSRDNLAEMISRFDETGASQIMVEPVEDVTAYGVVDCKGESLKPGESVPMVGVVEKPKADVAPSNLAVVGRYVLSADIWPLLAKTPPGAGDAIQLTDAIDMLIEKETVEAYHMKGKSHDCGNKLGYMQAFVEYGIRHKTLGDDFKAWLETAVAK
Completion: 4.4
